# measured-target: HLA-A*69:01
# experimental-details: IEDB peptide-MHC binding, purified MHC/direct/fluorescence; filed as Kd, often an IC50 or EC50 that approximates it; bounds were set here for any values at or beyond the usual limits of such assays
# measurement-context: source organism: Marburg virus - Musoke, Kenya, 1980
pKd: −log10 of the molar value.
property-measured: pKd

Form field: reported pKd of IHLDKGGQF ≤ 4.70

----------
# measured-target: HLA-A*01:01
# experimental-details: IEDB peptide-MHC binding, purified MHC/competitive/radioactivity; filed as Kd, often an IC50 or EC50 that approximates it; bounds were set here for any values at or beyond the usual limits of such assays
# measurement-context: source organism: Mammarenavirus guanaritoense
property-measured: Kd (µM)
// return numeric value only (unit: µM, not printed)

Form field: reported Kd of STGNYVHCF 1.3

----------
# measured-target: HLA-A*01:01
# experimental-details: IEDB peptide-MHC binding, purified MHC/competitive/radioactivity; filed as Kd, often an IC50 or EC50 that approximates it; bounds were set here for any values at or beyond the usual limits of such assays
# measurement-context: source organism: Dengue virus 4 Philippines/H241/1956
property-measured: pKd
Quick note: pKd means taking -log10 of the concentration in moles per liter.

Form field: reported pKd of KTETTILDV 5.21

----------
# measured-target: HLA-B*46:01
# experimental-details: IEDB peptide-MHC binding, purified MHC/competitive/fluorescence; filed as Kd, often an IC50 or EC50 that approximates it; bounds were set here for any values at or beyond the usual limits of such assays
# measurement-context: source organism: Cryptosporidium parvum Iowa II
Recorded measurements of Kd, one per entry

KSWLVHWSL = ≥ 20 µM

Please turn your attention to the following entry.
Form field: reported Kd of KSFSAGMFH ≥ 20 µM

----------
Recorded measurements of Kd, one per entry
# measured-target: HLA-B*44:03
# experimental-details: IEDB peptide-MHC binding, purified MHC/competitive/radioactivity; filed as Kd, often an IC50 or EC50 that approximates it; bounds were set here for any values at or beyond the usual limits of such assays
# measurement-context: source organism: Mammarenavirus lassaense
// return numeric value only (unit: µM, not printed)

YDFNKLTAL = 9.17

Please turn your attention to the following entry.
Form field: reported Kd of SEAQMSIQL 0.0993

----------
# measured-target: HLA-A*29:02
# experimental-details: IEDB peptide-MHC binding, purified MHC/direct/fluorescence; filed as Kd, often an IC50 or EC50 that approximates it; bounds were set here for any values at or beyond the usual limits of such assays
# measurement-context: source organism: Giardia lamblia ATCC 50803
property-measured: Kd

Test system HLA-A*29:02; read-out Kd; what value for LTAHYCFLY ? ≤ 1 nM

----------
# measured-target: HLA-B*07:02
# experimental-details: IEDB peptide-MHC binding, purified MHC/direct/fluorescence; filed as Kd, often an IC50 or EC50 that approximates it; bounds were set here for any values at or beyond the usual limits of such assays
# measurement-context: source organism: Clostridium botulinum
pKd: −log10 of the molar value.
property-measured: pKd

Form field: reported pKd of RVYINVVVK ≤ 4.70

----------
# measured-target: HLA-B*57:01
# experimental-details: IEDB peptide-MHC binding, purified MHC/competitive/fluorescence; filed as Kd, often an IC50 or EC50 that approximates it; bounds were set here for any values at or beyond the usual limits of such assays
# measurement-context: source organism: Campylobacter jejuni subsp. jejuni NCTC 11168 = ATCC 700819
property-measured: Kd

Form field: reported Kd of LELAEITAE ≥ 20 µM
